Test system: Hs-578T
ASSAY_PROTOCOL: NCI tumour cell line growth inhibition, 48 h
Activity calls are given as the source filed them. No stated cut-off is given here; in the data, active = GI50 up to about 1.1 µM and inactive = higher.
One label from this list, please: true (1) (active), false (0) (inactive)

{"columns": ["COMPOUND", "DISCRETE_LABEL"],
 "data": [
  ["Cc1c(-c2ccccc2)n[nH]c1NC1(C)C(=O)N(/N=C/c2ccccc2)N=C1c1ccccc1 (stereo not given)", "false (0)"],
  ["NC(=O)NC(=O)c1ccc(NC(=O)CBr)cc1", "false (0)"],
  ["Cc1ccc(S(=O)(=O)NC(=O)N[C@@H](Cc2c[nH]cn2)C(=O)O)cc1", "false (0)"],
  ["CN(/N=C/c1cccc2cccnc12)c1ccc(Cl)cc1[N+](=O)[O-]", "false (0)"]
]}

Hey, what did the test say about O=[N+]([O-])c1ccc(C(O)(C#CCN2CCCC2)c2ccccc2)cc1 (stereo not given) ? false (0)

Input `COc1ccc(NC(=S)N/N=C/c2cccc(C)n2)cc1` false (0)

Input `CC[C@@H](C)[C@H](NC(=O)[C@H](Cc1ccccc1)NCC(F)(F)F)C(=O)OC(C)(C)C` false (0)

Input CC(C)[Si](OC1=CCCCCC12C(=O)N(C)c1ccccc12)(C(C)C)C(C)C (stereo not given) false (0)

====

List of GI50 values.
Test system: SN12C
ASSAY_PROTOCOL: NCI tumour cell line growth inhibition, 48 h
The source made the active and inactive calls. Cut-off read from the data, not from the text of the source: active = GI50 up to about 1.1 µM and inactive = higher.

{"columns": ["ITEM_SMILES", "READOUT_VALUE"],
 "data": [
  ["CC(C)CNC(=O)CCc1cccc2c1oc1c(CCN)cccc12", "17.4 µM (inactive)"]
]}

Endpoint output: GI50 of `Sc1nc(S)nc(Oc2ccc(Cl)c(Cl)c2)n1` . Value? 37.9 µM (inactive)

Input `CC1(C)OC(=O)C(C#N)=C1/C=C/c1coc2ccc(Cl)cc2c1=O` 30.1 µM (inactive)

Input `O=c1cc[nH]c2c1ccc1ncccc12` > 100 µM (inactive)

Input `C=CC(C)(C)/C(=C\CO[Si](C(C)C)(C(C)C)C(C)C)C(=O)N(C)c1ccccc1I` 16.2 µM (inactive)

Input `CCCNC(=O)c1cc(NC(=O)c2cc(NC(=O)CCS(=O)(=O)OC)cn2C)cn1C` 13.8 µM (inactive)

====

System: DU-145
ASSAY_PROTOCOL: NCI tumour cell line growth inhibition, 48 h
Calls of active or inactive are those of the source. Cut-off read from the data, not from the text of the source: active = GI50 up to about 1.1 µM and inactive = higher.
PARAMETER: GI50

These recorded examples may help you get a feel for the data.
{"columns": ["MOLECULE", "SYSTEM_NAME", "GI50"],
 "data": [
  ["COc1ccc(CN2C[C@H]3[C@@H](CC(=O)O[C@H]3C)CC2=O)cc1", "DU-145", "> 100 µM (inactive)"],
  ["O=C1COCCN1C(=O)c1ccccc1Cl", "DU-145", "> 100 µM (inactive)"],
  ["COc1ccc(/C=C/C(=N/NC(=O)N/N=C(/C=C/c2ccc(OC)cc2)C(C)C)C(C)C)cc1", "DU-145", "80.2 µM (inactive)"],
  ["C=C(C)COC1CCCCO1 (stereo not given)", "DU-145", "> 100 µM (inactive)"],
  ["CC(=O)N1NC(c2ccccc2)=CC(=O)/C1=C/C(=O)c1ccccc1", "DU-145", "> 100 µM (inactive)"],
  ["CSC(Cc1ccc2c(c1)Sc1ccccc1O2)=[N+]1CCOCC1", "DU-145", "> 100 µM (inactive)"]
]}

Endpoint output: GI50 of `O=C1/C(=C/c2ccc(Cl)cc2)Oc2ccccc21` . Value? 19.7 µM (inactive)

Input `Cc1ccc(S(=O)(=O)N/C(=C\C=C\c2ccccc2)C(=O)C(C)(C)C)cc1` > 100 µM (inactive)

Input `CCCCCC/C=C/C#CCCCCCCCC(=O)O` > 100 µM (inactive)

Input `CC1(C)[C@@H](Cn2cnc3c(O)nc(N)nc32)CC[C@@]1(C)CO` > 100 µM (inactive)

Input `CC1(C)C(=O)/C=C\C(=O)C(C)(C)C(=O)/C=C\C(=O)C(C)(C)C(=O)/C=C\C(=O)C(C)(C)C(=O)/C=C\C1=O` > 100 µM (inactive)

Input CCCC(O)[C@@]1(CC)CC(C)C(O)(C2(C)C[C@H](C)[C@@H](C(CC)C(=O)C(C)[C@@H](O)[C@H](C)C3OC(O)(C(CC)C(=O)O)[C@@H](C)C(O)C3CC)O2)O1 (stereo not given in full) 0.0885 µM (active)

Input `CC(C)c1ccc(C(c2c(O)oc3ccccc3c2=O)c2c(O)oc3ccccc3c2=O)cc1` 23.8 µM (inactive)

====

Tested on: NCI-H23
ASSAY_PROTOCOL: NCI tumour cell line growth inhibition, 48 h
Active and inactive are the calls of the source. No stated cut-off is given here; in the data, active = GI50 up to about 1.1 µM and inactive = higher.
One label from this list, please: true for active, false for inactive

Example entries begin here.
{"columns": ["COMPOUND", "DISCRETE_LABEL"],
 "data": [
  ["CC(=O)O[C@H]1C(=O)[C@@]2(C)[C@H]([C@H](OC(=O)c3ccccc3)[C@]3(O)C[C@H](OC(=O)[C@H](O)[C@@H](NC(=O)c4ccoc4)c4ccccc4)C(C)=C1C3(C)C)[C@]1(OC(C)=O)CO[C@@H]1C[C@@H]2O", "true"],
  ["CCC12CCCN(Cc3ccccc3)C1c1c([nH]c3ccccc13)C(C(=O)OC)C2 (centres undefined)", "false"],
  ["O=C(CC(=O)c1ccccc1)CC(O)(c1ccccc1)c1ccccc1", "false"],
  ["CC1C[C@]2(C)C(=S)Nc3ccccc3[C@@H]2Nc2ccccc21 (some centres undefined)", "false"],
  ["COc1ccc(/C=C/C(=N/NC(=O)N/N=C(/C=C/c2ccc(OC)cc2)C(C)C)C(C)C)cc1", "false"]
]}

Okay, next one:
Hey, what did the test say about `Cc1cc2[nH]c(Cl)c(/C=C3\C(=O)Nc4ccccc43)c2cc1O` ? false

====

Test system: 786-0
ASSAY_PROTOCOL: NCI tumour cell line growth inhibition, 48 h
Active and inactive are the calls of the source. No stated cut-off is given here; in the data, active = GI50 up to about 1.1 µM and inactive = higher.
PARAMETER: GI50

These recorded examples may help you get a feel for the data.
{"columns": ["COMPOUND", "GI50"],
 "data": [
  ["COC(=O)[C@@H]1CN(C(=O)CCc2ccccc2)C(=O)N1C(=O)OCc1ccccc1", "> 100 µM (inactive)"],
  ["O=[N+]([O-])c1ccc(-c2ccc(-c3csc(Nc4ccccc4)n3)o2)cc1", "17.1 µM (inactive)"],
  ["Cc1nc2sc3cccc(Cl)c3n2c(=O)c1/N=N/c1ccc(Cl)cc1", "> 100 µM (inactive)"],
  ["CC(C)CNC(=O)CCc1cccc2c1oc1c(CCN)cccc12", "12.4 µM (inactive)"],
  ["COc1ccc(CN2C[C@H]3[C@@H](CC(=O)O[C@H]3C)CC2=O)cc1", "> 100 µM (inactive)"]
]}

Which GI50 is reported with 786-0 for this entry: `N#Cc1c(O)nc2nn3c4ccc5ccccc5c4nnc3c2c1-c1ccc(Cl)cc1` ? 2.59 µM (inactive)

Input COC(=O)/C=C1\CCC2[C@@H](C(=O)CC3[C@]2(C)CCC[C@@]3(C)C(=O)OC)C1C (stereo not given in full) 31.3 µM (inactive)

Input CSc1nc2c(c(=O)n1C)N=C(c1ccccc1)[C@H](C(CC(=O)c1ccccc1)c1ccccc1)C(c1ccccc1)N2 (stereo not given in full) > 100 µM (inactive)

Input `CC(=O)OCCOCNC(=S)N/N=C(\C)c1cnc2ccccc2n1` 39.7 µM (inactive)

Input `CC(=O)OC(OC(C)=O)c1ccc2ccc3cccc4ccc1c2c34` 36.1 µM (inactive)

Input COC12C=CC(CC1)C(C)(C)C2=O (stereo not given) > 100 µM (inactive)

Input CC1C[C@]2(C)C(=S)Nc3ccccc3[C@@H]2Nc2ccccc21 (stereo not given in full) 16.3 µM (inactive)

Input `COc1ccccc1/N=N/C(=N/NC(=O)c1ccc(C)cc1)c1ccc(N(CCC#N)CCC#N)cc1OC` 31.7 µM (inactive)

Input `NS(=O)(=O)c1ccc(/C=C/c2cccc(O)c2)cc1` > 100 µM (inactive)

Input `Nc1ccc(Oc2ccc(C3(c4ccc(Oc5ccc(N)cc5)cc4)C4CC5CC(C4)CC3C5)cc2)cc1` 4.57 µM (inactive)

====

Test system: KM12
ASSAY_PROTOCOL: NCI tumour cell line growth inhibition, 48 h
Activity calls are given as the source filed them. No stated cut-off is given here; in the data, active = GI50 up to about 1.1 µM and inactive = higher.
PARAMETER: GI50

{"columns": ["COMPOUND", "GI50"],
 "data": [
  ["COC(=O)c1ccc(/N=N/N(C)COc2ccc(Br)cc2)cc1", "75.5 µM (inactive)"],
  ["CC1C[C@]2(C)C(=S)Nc3ccccc3[C@@H]2Nc2ccccc21 (stereo partly specified)", "15.5 µM (inactive)"],
  ["C#CC(O)Cc1ccc(OC)c2occc12 (stereo unspecified)", "> 100 µM (inactive)"],
  ["COc1ccc2c(c1)CCCC(Br)C2=O (stereo unspecified)", "3.24 µM (inactive)"],
  ["Cc1cc2[nH]c(Cl)c(/C=C3\\C(=O)Nc4ccccc43)c2cc1O", "2.92 µM (inactive)"],
  ["O=C(CSc1nnc(Cc2ccccc2)o1)Nc1ccc([N+](=O)[O-])cc1", "> 100 µM (inactive)"]
]}

Endpoint output: GI50 of CC1CN(c2cc3c(cc2F)c(=O)c(C(=O)O)cn3-c2ccc(F)cn2)CC(C)N1 (stereo unspecified) . Value? > 100 µM (inactive)
